Assay Protocol: Biodisposition of JV-DE1 eye drops in New Zealand rabbits (LC-MS/MS of plasma and ocular tissues)
Type: in vivo
Particulars: New Zealand, ciliary body/iris, topical, 120 µg/eye; rabbit; single eye drop 120 μg/eye OD; 3 h; read-out: Drug in OD Tissues, Ciliary body/iris
Value Type: concentration at 3 h (ng/g)
One number for each entry, in ng/g.

GET /value?item= "CC(C)Oc1ccc(Cc2ccc(NC3=NCCN3)cc2)cc1" &field=concentration at 3 h returns 305

###

Assay Protocol: Biodisposition of JV-DE1 eye drops in New Zealand rabbits (LC-MS/MS of plasma and ocular tissues)
Format: in vivo
Particulars: New Zealand, posterior sclera, topical, 120 µg/eye; rabbit; single eye drop 120 μg/eye OD; 6 h; read-out: Drug in OD Tissues, Posterior sclera
Value Type: concentration at 6 h (ng/g)
Numbers only, in ng/g.

GET /value?item= CC(C)Oc1ccc(Cc2ccc(NC3=NCCN3)cc2)cc1 [JV-DE1] &field=concentration at 6 h returns 151

###

Assay Protocol: Biodisposition of JV-DE1 eye drops in New Zealand rabbits (LC-MS/MS of plasma and ocular tissues)
Type: in vivo
Particulars: New Zealand, vitreous humor, topical, 120 µg/eye; rabbit; single eye drop 120 μg/eye OD; 3 h; read-out: Drug in vitreous humor
Value Type: concentration at 3 h (ng/mL)
Numbers only, in ng/mL.

GET /value?item= "CC(C)Oc1ccc(Cc2ccc(NC3=NCCN3)cc2)cc1" &field=concentration at 3 h returns 1.7

###

Assay Protocol: Biodisposition of JV-DE1 and JV-MD2 delivered via NIODP (periorbital skin) in non-human primates
Format: in vivo, cynomolgus monkeys
Particulars: cynomolgus, cynomolgus monkey, cornea of the dosed left eye (OS), topical; JV-MD2; monkey; NIODP OS; 6568 μg/eye; 0.5 h; endogenous BLQ; read-out: Drug in OS Tissues, Cornea
Value Type: concentration at 0.5 h (ng/g)
One number for each entry, in ng/g.

GET /value?item= CC/C=C\C/C=C\C/C=C\C/C=C\C/C=C\C/C=C\CCC(=O)O [JV-MD2, cis-4,7,10,13,16,19-docosahexaenoic acid] &field=concentration at 0.5 h returns 66000

###

Assay Protocol: Biodisposition of JV-DE1 eye drops in New Zealand rabbits (LC-MS/MS of plasma and ocular tissues)
Type: in vivo
Particulars: New Zealand, vitreous humor, topical, 120 µg/eye; rabbit; single eye drop 120 μg/eye OD; 0.5 h; read-out: Drug in vitreous humor
Value Type: concentration at 0.5 h (ng/mL)
Numbers only, in ng/mL.

GET /value?item= CC(C)Oc1ccc(Cc2ccc(NC3=NCCN3)cc2)cc1 [JV-DE1] &field=concentration at 0.5 h returns 2.6

###

Assay Protocol: Biodisposition of JV-DE1 and JV-MD2 delivered via NIODP (periorbital skin) in non-human primates
Format: in vivo, cynomolgus monkeys
Particulars: cynomolgus monkey, cornea, topical; JV-MD2; monkey; single dose about 7 mg via NIODP; read-out: Cmax in cornea
Value Type: Cmax (ng/g)
Numbers only, in ng/g.

GET /value?item= CC/C=C\C/C=C\C/C=C\C/C=C\C/C=C\C/C=C\CCC(=O)O [JV-MD2, cis-4,7,10,13,16,19-docosahexaenoic acid] &field=Cmax returns 66000

###

Assay Protocol: Biodisposition of JV-DE1 and JV-MD2 delivered via NIODP (periorbital skin) in non-human primates
Assay type: in vivo, cynomolgus monkeys
Particulars: cynomolgus, cynomolgus monkey, cornea, topical; JV-DE1; monkey; NIODP OD; 162.2 μg/eye; 6 h; read-out: Drug in OD Tissues, Cornea
Value Type: concentration at 6 h (ng/g)
One number for each entry, in ng/g.

GET /value?item= "CC(C)Oc1ccc(Cc2ccc(NC3=NCCN3)cc2)cc1" &field=concentration at 6 h returns 23900
